Protocol Text: protease stability score; higher = more stable; yeast display proteolysis, trypsin and chymotrypsin;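 also: relative to predicted unfolded state with 0 unfolded-like and 1 meaning tenfold more protease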
Recorded Endpoint: protease stability score
Give your answer as a number; write no unit.

{"Item Sequence": "DEDRFETELAVDLWLRTLETGDEHFLHRLADPRVQLEYGNFHYHGRHEFLHWFHDLKRKYKNLRVDIRDVRDIDGRIILHTELKQGDKHIESKVYMEKYDGRWLIKSYEIR", "Recorded Endpoint": "protease stability score", "Assay Value": 0.971}
{"Item Sequence": "DEQERLMRKLAEIIVEAIITGDWRSLAELFDPDVRIDINGRELIGRETWVTWLQEEYKRFKNQRIELHIRDVDVQGDYSHIDGHSRIVIGDFVFTTEIHTEIVIIDGRVHSMHHHVK", "Recorded Endpoint": "protease stability score", "Assay Value": 1.18}
{"Item Sequence": "DETFEWANIAIEHLIHSARTGDEKTFEEMADPDTRFLYNGQIIIGREEVNKMLSTVLREIRLEDVQVKRIEVYDGRVHSDMTRQGEFDGRHFTSKTEFIVHKVDGRWSIKEIRIT", "Recorded Endpoint": "protease stability score", "Assay Value": 0.89}

Q: # return recorded protease stability score for input `SQEEKEIRDWLHILANARLTGDEDWLLKQADPNTRLEFNGVDLVGMEHNIKFLLHLERQHGMRLHNIHIHHVEVQGDKVESDIREDGEVNGRRMIFTSIIIVRKVNGRWILRSFHLH`
A: 1.21

Q: # return recorded protease stability score for input `DEDEEFAKELLERTAESIVTGDEDMWREYFDPHARIEFNGKDYHGWHEFERMLRELRVHRVEVEVKRVHLYDGRMDVKGELHIKGTFDGRRVEESTDVDYFIIKIDGQWYIRHETII`
A: 0.761

Q: # return recorded protease stability score for input `DEEEEKLKKWADDTIQLLRTGDEEDLYKMLDPHARTEVNGRELHGREEMFKVLKTIWDKVKGIKFLHRDHRLYNGRVEIHGELVIGDKIHKVHIIVLIINGKIKEVEIHIH`
A: 1.39

###

Listed next: entries and their corresponding protease stability score.
Protocol Text: protease stability score; higher = more stable; yeast display proteolysis, trypsin and chymotrypsin;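 also: relative to predicted unfolded state with 0 unfolded-like and 1 meaning tenfold more protease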
Give your answer as a number; write no unit.

Past entries and their recorded results:
{"Item Sequence": "SEEEKEMHHIARLFFELWLTGDEETHQRLLDPDAKHSFNGVILHGRDEMIRYWRQFLEEIRLRSIEIRRITSVGDKVHVDSHVDGEVNGRRIVTREYIELEVVDGRWKRVKLHIK", "Assay Value": 1.38}
{"Item Sequence": "SEDDHELEKLIRLWYDSVLTGDERTINELFDPNTRLEINGKVLHGMENFHRFVHTFLHHIRLKRIEIEDIKYINGVAHIDSRMVGDINGKDVRYETQFLVQKVDGKWVIKAVIIR", "Assay Value": 2.08}

Next:
Q: # return recorded protease stability score for input `SHEKELNERAFRILIEELMTGDEDSWRKLADPNTRHIIDGQTYHGMDFFHEHVRKMGMTIHHVELEDYRFQGEKAVLILHIDGRQGEKHDKIRITIFIEKVDGRWILREVRIG`
A: 1.17

###

Protocol Text: protease stability score; higher = more stable; yeast display proteolysis, trypsin and chymotrypsin;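 also: relative to predicted unfolded state with 0 unfolded-like and 1 meaning tenfold more protease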
Recorded Endpoint: protease stability score
Give your answer as a number; write no unit.

Past entries and their recorded results:
{"Item Sequence": "SEEEQLALEIARRLVRSILTGDEHEIHRLMDPHVRTNWNGQELVGREEWDRFNHEMRIHELRIREFDVEVFNGRVESRFRTETRMTFDGREVNEETKLIVILDKVDGKWHLRHVEFRIH", "protease stability score": 0.651}
{"Item Sequence": "SEEEHHDRMVSHLWIKLWSTGDEDRIRELLDPNAKFELEQGDKEVHDHGRESIAKWLEIMFRHLGVKHFRLEHVHVFNGRIEVIMRLDVGDKHITIILRTQVIDGRIKSFVIETRHK", "protease stability score": 1.17}
{"Item Sequence": "VETEERLHDIVHSIIRLDETGDEQDFDRLVDPNAKFDIDGKELHGRDNFRHMWARYRRELGVDHIQFKHVFIQGDKIHQERRVTIGDKTYNMHVDLVVIDGRIQHVRYRIR", "protease stability score": 1.56}
{"Item Sequence": "SEDEEYSHFASELFLNIFETGDWKTLLHYMDPNTRLVVNGRHHHGWKFMVEFLLHARIHTTRLKDIRTVNGKVDVDGRVDGHINGQKEERVFIINITKVNGVWILESVIIE", "protease stability score": 0.986}

Q: # return recorded protease stability score for input `SELEDATEFAIKVLLEVLRTGDWLEFEKMVDPNVRSSINGVELHGRRRLSHEILREWMELGIKHLDVHLKHKELQGDKLILIVELRLDVNGREIRRETELILLKVDGRWLLTEVRVK`
A: 1.58

Q: # return recorded protease stability score for input `DEDRKLFTEATHRLNNVLETGDEDSLLRLMDPNTRYKVNGVELIGREMVKHMFRILMHHWRVKSHDYHDIEIQGDWAVIDSRVDGVIDGRRTHTQLRVESIKIDGKWFDHEVTLE`
A: 0.398

Q: # return recorded protease stability score for input `NERTEEIEEAMERMLEWWRTGNFEDINKNLDPNMRTHVFIDGREVLFHGRELMLEIFDRMGVDHIEVTHFDVIGNKVEVHSRSHQGDKHVDIKLVLEKIDGRWILSQIHIRIE`
A: 1.94

The values you see were collected from the NTF2 design screens of Basanta et al. (2020).
